Counter-ions that a name gives are not always drawn.
Measurement Label: melting point

Consider the worked cases shown below.
CCO[C@@H](Cc1ccc(OCCN2CCSc3ccccc32)cc1)C(=O)O (as salt: salt) [Example 3]
110 °C
CCO[C@@H](Cc1ccc(OCCN2CCSc3ccccc32)cc1)C(=O)O (as salt: salt) [Example 5]
142 to 144 °C
CCO[C@@H](Cc1ccc(OCCN2CCSc3ccccc32)cc1)C(=O)O (as salt: salt) [Example 2]
155 to 158 °C

Kindly consider the entry below.
Task: Give melting point for the following compound: CCO[C@@H](Cc1ccc(OCCN2CCSc3ccccc32)cc1)C(=O)O (as salt: salt) [Example 1]
Output: 126 to 128 °C

----------
Protocol Notes: Single dose oral pharmacokinetic studies
Type: in vivo
Assay Conditions: rat, plasma, 30 mg/kg, male Wistar rats, suspension in 0.25% sodium CMC
Measurement Label: AUC(0-inf) (µg·h/mL)
Report the figure in µg·h/mL without appending any unit label.

Task: Name the recorded AUC(0-inf) of the molecule listed here: CCO[C@@H](Cc1ccc(OCCN2CCSc3ccccc32)cc1)C(=O)O
Output: 320

----------
Protocol Notes: Single dose oral pharmacokinetic studies
Format: in vivo
Assay Conditions: rat, plasma, 30 mg/kg, male Wistar rats, suspension in 0.25% sodium CMC
Measurement Label: AUC(0-t) (µg·h/mL)
Entry rule: numbers only, all in µg·h/mL.

Task: Using known records, supply AUC(0-t) for CCO[C@@H](Cc1ccc(OCCN2CCSc3ccccc32)cc1)C(=O)O
Output: 315

----------
Measured On: hPPARγ1 (Homo sapiens, UniProt P37231)
Construct: expressed in transfected cells; host or cells: HEK-293
Sequence (P37231 238-503 limits assumed): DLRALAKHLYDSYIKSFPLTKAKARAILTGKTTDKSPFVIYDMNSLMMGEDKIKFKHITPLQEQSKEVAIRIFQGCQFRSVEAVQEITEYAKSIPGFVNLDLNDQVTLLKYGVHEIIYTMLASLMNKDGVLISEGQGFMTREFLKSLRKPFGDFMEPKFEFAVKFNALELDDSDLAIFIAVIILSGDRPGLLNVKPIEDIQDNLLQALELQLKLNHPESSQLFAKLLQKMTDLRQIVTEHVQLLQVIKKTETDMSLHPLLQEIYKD
Protocol Notes: Determination of hPPARγ activity (GAL4-LBD luciferase reporter in HEK-293 cells)
Format: cell-based
Assay Conditions: 1 μM compound, transfected HEK-293 cells
Quick reference for PPARγ (luciferase activity) among some molecules
Answer with a bare number; do not write a unit.

Consider the reported PPARγ (luciferase activity) for these molecules:
CCO[C@@H](Cc1ccc(OCCN2CCSc3ccccc32)cc1)C(=O)O [Example 2]
9.8
CCO[C@@H](Cc1ccc(OCCN2CCSc3ccccc32)cc1)C(=O)O [Example 6]
21
CCO[C@@H](Cc1ccc(OCCN2CCSc3ccccc32)cc1)C(=O)O [Example 5]
7.6

// below: PPARγ (luciferase activity) requested for another molecule
Task: State its PPARγ (luciferase activity) for this molecule: CCO[C@@H](Cc1ccc(OCCN2CCSc3ccccc32)cc1)C(=O)O [Example 3]
Output: 19

----------
molecules and their reported PPARα (luciferase activity)
Measured On: hPPARα (Homo sapiens)
Construct: expressed in transfected cells; host or cells: HEK-293
Sequence (Q07869 239-466 limits assumed): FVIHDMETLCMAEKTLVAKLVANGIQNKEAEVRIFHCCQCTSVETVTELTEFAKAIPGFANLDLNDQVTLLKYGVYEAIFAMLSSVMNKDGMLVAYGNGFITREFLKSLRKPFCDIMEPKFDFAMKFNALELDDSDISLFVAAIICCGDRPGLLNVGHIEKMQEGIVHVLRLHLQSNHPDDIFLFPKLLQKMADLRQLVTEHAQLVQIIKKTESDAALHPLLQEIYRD
Protocol Notes: Determination of hPPARα activity (GAL4-LBD luciferase reporter in HEK-293 cells)
Format: cell-based
Assay Conditions: 50 μM compound, transfected HEK-293 cells
Protocol: a) Determination of hPPARα Activity Ligand binding domain of hPPARα was fused to DNA binding domain of Yeast transcription factor GAL4 in eucaryotic expression vector. […] Luciferase activity as a function of compound binding/activation capacity of PPARα was measured using Packard Luclite kit (Packard, USA) in Top Count (Ivan Sadowski, Brendan Bell, Peter Broag and Melvyn Hollis. Gene. 1992. 118: 137 -141; Superfect Transfection Reagent Handbook. February 1997, Qiagen, Germany).
Number only, please.

Worked cases, answers included:
CCO[C@@H](Cc1ccc(OCCN2CCSc3ccccc32)cc1)C(=O)O [Example 5]
3.5
CCO[C@@H](Cc1ccc(OCCN2CCSc3ccccc32)cc1)C(=O)O [Example 6]
4.7
CCO[C@@H](Cc1ccc(OCCN2CCSc3ccccc32)cc1)C(=O)O [Example 3]
5.2

Task: Dear colleague, please send me the reported PPARα (luciferase activity) for CCO[C@@H](Cc1ccc(OCCN2CCSc3ccccc32)cc1)C(=O)O [Example 2] when you can.
Output: 3.0

----------
Protocol Notes: Single dose oral pharmacokinetic studies
Format: in vivo
Assay Conditions: rat, plasma, 30 mg/kg, male Wistar rats, suspension in 0.25% sodium CMC
Measurement Label: half-life (h)
Enter your answer as a number in h; do not include the unit.

Task: Look up and report measured half-life for this entry: CCO[C@@H](Cc1ccc(OCCN2CCSc3ccccc32)cc1)C(=O)O
Output: 4.25

----------
Protocol Notes: Single dose oral pharmacokinetic studies
Format: in vivo
Assay Conditions: rat, plasma, 30 mg/kg, male Wistar rats, suspension in 0.25% sodium CMC
Protocol: Single Dose Oral Pharmacokinetic Studies Male Wistar rats (220-250 gm) were used in the experiments. The animals were maintained under standard laboratory conditions and had free access to feed and water ad libitum. […] Pharmacokinetic parameters were calculated by non-compartmental model analysis. […] The area under the plasma concentration versus time curve up to the last quantifiable time point, AUC(0-t) was obtained by the linear and log-linear trapezoidal summation. […]
Measurement Label: Tmax (min)
Unit min implied. Number only.

Task: Report Tmax for CCO[C@@H](Cc1ccc(OCCN2CCSc3ccccc32)cc1)C(=O)O
Output: 37.8
